tested on: NCI-H226; test: NCI tumour cell line growth inhibition, 48 h
The source made the active and inactive calls. Cut-off read from the data, not from the text of the source: active = GI50 up to about 1.1 µM and inactive = higher. Peptide text beside a SMILES is read from it. * marks the point of attachment. Boc = CC(C)(C)OC(=O)*; OBn = c1ccc(CO*)cc1
Outcome codes: T (active), F (inactive)

COMPOUND	GROUP_LABEL
CN1C=COC1N=C1CCCCC1 (centres undefined)	F
Cc1ccc(/C(=C/C=C(C#N)C#N)Sc2cc(Cl)ccc2Cl)cc1	F
CC(C)CC(NC(=O)OC(C)(C)C)C(=O)NC(CC(=O)OCc1ccccc1)C(N)=O (stereo not drawn) (Boc-Leu-Asp(OBn)-NH2; configuration not given here)	F
CC(C)N(C(=O)C12CC3CC(CC(C3)C1)C2)C(C)C	F
CC/C(CC(=O)CCC(=O)Nc1ccccc1[N+](=O)[O-])=N/NC(=O)C[n+]1ccccc1	F
C#C[C@@H](CCCC)OC(=O)N[C@H](C)c1ccccc1	F
CC(C)OP(=O)(OC(C)C)/C(=N/Nc1ccc([N+](=O)[O-])cc1)NCCO	F
O=C1c2cccnc2S(=O)(=O)N1c1ccc(Oc2ccccc2)cc1	F
CCOC(=O)c1c(N=C(S)Nc2ccc(Cl)cc2)sc2c1CCN(C)C2	F
COc1ccc(C(=O)CC(c2ccc(OC)c(OC)c2)c2c(O)oc3ccccc3c2=O)cc1OC (centres undefined)	F
O=[N+]([O-])c1ccc(C2=Nn3c(nnc3-c3ccc(Cl)cc3)SC2)o1	F
Cc1cc(O)nc(NNC(C#N)c2cccc([N+](=O)[O-])c2)n1 (centres undefined)	F
CC1NCCC(CC(=O)O)C1CC(=O)O (centres undefined)	F
Cc1n[nH]c(=O)n1/N=C/c1ccco1	F
C#C[C@]1(O)[C@@H](CO)O[C@@H](n2ccc(=O)[nH]c2=O)[C@@H]1O	T
O=C1/C(=N\NC(=S)NC2CCCCC2)c2cc([N+](=O)[O-])ccc2N1CN1CCOCC1	F
C=C1C(=O)OC2(C)CCC1CC1OC1(C)CCC=C(C)CCC2O (centres undefined)	F
CCOC1c2cc(C(C)C)c(O)c(O)c2[C@@]23CCCC(C)(C)C2C1OC3=O (some centres undefined)	F
Cc1ccc(CC(C)N)cc1 (centres undefined)	F
CCC1(CC)C(=O)N(C(=O)c2ccc(C)cc2)N(C(=O)c2ccc(C)cc2)C1=O	F
CCCCCCCC/C=C/CCCCCCCC1CC(O)C(=O)O1 (centres undefined)	F
O=C1c2ccccc2C(=O)N1[C@@H](Cc1ccccc1)C(=O)n1cccc1CO	F
NC(=O)NCCCC(NC(=O)OCCCCCn1ccc(=O)[nH]c1=O)C(=O)O (centres undefined)	F
COc1ccc2c(c1)nc1n2C(c2c(Cl)cccc2Cl)SC1 (centres undefined)	F
Cc1ccc2c(c1)C(=O)/C(=N/Nc1ccc(Cl)cc1)CCO2	F
Clc1ccc2[nH]c(CCSCCc3nc4ccc(Cl)cc4[nH]3)nc2c1	F
N=c1oc2c(Cl)cc(Cl)cc2cc1C(=O)Nc1ccccn1	F
CC(CO)(Nc1ccc([N+](=O)[O-])cc1[N+](=O)[O-])C(=O)O (centres undefined)	F
Nc1ccc2c(c1)C(=O)N(OS(=O)(=O)c1ccccc1)C2=O	F
COc1cc2c(cc1OC)C(Cl)C(c1ccc(F)cc1)=C2Cl (centres undefined)	F
NC(=O)CCC(NC(=O)C(F)(F)F)C(=O)O (centres undefined)	F
C/C=C/C=C/C=C/C=C/C(=O)O	F
c1coc(C2=Nc3cccc4cccc(c34)N2)c1	F
CC1=NC(=Cc2ccc([N+](=O)[O-])cc2)C(=O)N1n1c(-c2ccccc2)nc2ccccc2c1=O	F
O=[N+]([O-])c1ccc(Sc2c3ccccc3nc3ccccc23)nc1	F
C/C(=N\NC(N)=S)c1ccc(C)c(C)c1	F
CC(NC(=O)Cc1ccccc1)NC(=O)C(C)C(=O)Nc1ccccc1 (centres undefined)	F
O=c1[nH]nc(-c2ccccc2)n1-c1cccc([N+](=O)[O-])c1	F
COc1c(C)n(CCO)ccc1=O	F
CN(C)CCCNc1ccnc2cccc([N+](=O)[O-])c12	F
CC1=CP(=O)(OC(C)C)C=C(C)C1=C(Cl)Cl (centres undefined)	F
CC(=O)OCC12CN(C#N)C3C4COC(CC41)C1(C(=O)N(C)c4ccccc41)C32 (centres undefined)	F
CC(=O)NNc1nc(C)c(C(=O)/C=C/c2ccc(/C=C/C(=O)c3sc(NNC(C)=O)nc3C)cc2)s1	F
COC(=O)c1cn(CCCCO)nn1	F

Values from ChEMBL document CHEMBL1201862
